viability values, listed per item
- test_description: growth inhibitors of H69AR lung tumor, primary screen, human, duplicate replicates (AID 580);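 further: 100% = mean luminescence of untreated wells and 0% = no signal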
- particulars: H69AR lung tumor cells viability, ATP luminescence, 72 h; at 10 µM; active compounds read low
Give just the numeric value; % need not be written.

Cc1ccccc1CN1CCN(CC(=O)NCc2ccco2)C1=O | 83

For the compound O=S(=O)(c1ccc(OCC(O)CN2CCc3ccccc3C2)cc1)N1CCOCC1 (stereo unspecified) , report viability. 87.6

For the compound O=C(NCc1ccc2c(c1)OCO2)c1ccc(NS(=O)(=O)c2ccc3c(c2)OCCO3)cc1 , report viability. 106

For the compound CCOC(=O)N1CCN(C(=O)CN(Cc2ccccc2)S(=O)(=O)c2ccc(OC)c(C)c2)CC1 , report viability. 94.7

For the compound COc1ccc(CC(=O)NCc2ccccc2)cc1S(=O)(=O)N1CCOCC1 , report viability. 89

For the compound CCOC(=O)CNC(=O)Cn1cnc2c(nnn2-c2cccc(Cl)c2)c1=O , report viability. 107

For the compound CN(Cc1ccccc1)Cc1nc2c([nH]1)c(=O)[nH]c(=O)n2C , report viability. 90.9

For the compound CCCCn1c(SCC(=O)NCc2ccccc2)nc2ccc(N3CCOCC3)cc2c1=O , report viability. 74

For the compound COc1ccccc1-n1cnnc1SCC(=O)c1ccc[nH]1 , report viability. 108

For the compound CCOC(=O)c1ccc2[nH]c3c(c2c1)CCCCC3=O , report viability. 99.5

For the compound O=C(Cc1nn[nH]n1)NCCC1=CCCCC1 , report viability. 95.7

This collection of values is drawn from PubChem BioAssay.
